# TARGET: T1, human TNF-α (human, UniProt P01375 77-233)
# T1 construct: It was biotinylated in some screening assays; also called hTNF-α; hTNF
# T1 sequence (P01375 77-233 limits assumed): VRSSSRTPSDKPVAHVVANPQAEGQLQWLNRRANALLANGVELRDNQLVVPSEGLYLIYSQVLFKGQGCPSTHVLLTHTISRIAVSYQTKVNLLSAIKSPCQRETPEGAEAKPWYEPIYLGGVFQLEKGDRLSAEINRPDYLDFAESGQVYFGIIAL
# MEASUREMENT PROTOCOL: ELISA, Fab dilution series on human TNF-α (Example 1; the filing does not say which of its two ELISA formats: hTNF-α-coated plate, or Fab captured on anti-human kappa with 5 nM biotinylated hTNF-α)

{"BINDER": "2E7P Fab fragment (Fab, name in Kabat numbering, V domains shown) VH: EVQLVESGGGLVQPGGSLRLSCAASGFPFSNHWMNWVRQAPGKGLEWVGEIRSKSMNSATHYARSVKGRFTISRDDSKNSLYLQMNSLKTEDTAVYYCARNYYGSTYDHWGQGTLVTVSS VL: EIVLTQSPDFQSVTPKEKVTITCRASQFVGLSIHWYQQKPDQSPKLLIKYASESRSGVPSRFSGSGSGTDFTLTINSLEAEDAATYYCQQSHSWHFTFGQGTKVEIK", "EC50 (read off the curve)": "~0.03 µg/mL"}
{"BINDER": "A9P Fab fragment (Fab, name in Kabat numbering, V domains shown) VH: EVQLVESGGGLVQPGGSLRLSCAASGFPFSNHWMNWVRQAPGKGLEWVGEIRSKSMNSATHYARSVKGRFTISRDDSKNSLYLQMNSLKTEDTAVYYCARNYYGSTYDHWGQGTLVTVSS VL: EIVLTQSPDFQSVTPKEKVTITCRASQFVGMSIHWYQQKPDQSPKLLIKYASESKSGVPSRFSGSGSGTDFTLTINSLEAEDAATYYCQQSHSWHFTFGQGTKVEIK", "EC50 (read off the curve)": "~0.02 µg/mL"}
{"BINDER": "2C6P Fab fragment (Fab, name in Kabat numbering, V domains shown) VH: EVQLVESGGGLVQPGGSLRLSCAASGFPFSNHWMNWVRQAPGKGLEWVGEIRSKSINSATHYARSVKGRFTISRDDSKNSLYLQMNSLKTEDTAVYYCARNYYGSTYDHWGQGTLVTVSS VL: EIVLTQSPDFQSVTPKEKVTITCRASQFVGLSIHWYQQKPDQSPKLLIKYASEYMSGVPSRFSGSGSGTDFTLTINSLEAEDAATYYCQQSHSWHFTFGQGTKVEIK", "EC50 (read off the curve)": "~0.02 µg/mL"}
{"BINDER": "2E7K Fab fragment (Fab, name in Kabat numbering, V domains shown) VH: EVQLVESGGGLVQPGGSLRLSCAASGFKFSNHWMNWVRQAPGKGLEWVGEIRSKSMNSATHYARSVKGRFTISRDDSKNSLYLQMNSLKTEDTAVYYCARNYYGSTYDHWGQGTLVTVSS VL: EIVLTQSPDFQSVTPKEKVTITCRASQFVGLSIHWYQQKPDQSPKLLIKYASESRSGVPSRFSGSGSGTDFTLTINSLEAEDAATYYCQQSHSWHFTFGQGTKVEIK", "EC50 (read off the curve)": "~0.02 µg/mL"}
{"BINDER": "A9K Fab fragment (Fab, name in Kabat numbering, V domains shown) VH: EVQLVESGGGLVQPGGSLRLSCAASGFKFSNHWMNWVRQAPGKGLEWVGEIRSKSMNSATHYARSVKGRFTISRDDSKNSLYLQMNSLKTEDTAVYYCARNYYGSTYDHWGQGTLVTVSS VL: EIVLTQSPDFQSVTPKEKVTITCRASQFVGMSIHWYQQKPDQSPKLLIKYASESKSGVPSRFSGSGSGTDFTLTINSLEAEDAATYYCQQSHSWHFTFGQGTKVEIK", "EC50 (read off the curve)": "~0.02 µg/mL"}
